target: canine IL-4RA (construct not given) (canine); test: SPR, IL-4RA immobilised, periplasmic Fab
Measured koff of individual entries
readout: koff (s⁻¹)

FJ2246MP06F11 (Fab, V domains shown) VH: EVQLVESGGDLVKPGGSLRLSCVASGFTFRDYAMTWVRQAPGKGLQWVSLINGDGSKTYYADAVKGRFTISRDNAKNTLYLQMNSLRAEDTAVYYCAVDRLTKTIRPQYYGLWVWGQGTLVTVSS VL: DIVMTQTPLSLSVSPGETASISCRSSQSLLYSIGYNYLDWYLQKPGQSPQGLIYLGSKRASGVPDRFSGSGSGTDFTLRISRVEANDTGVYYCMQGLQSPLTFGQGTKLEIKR    0.000143
FJ2246MP10H03 (Fab, V domains shown) VH: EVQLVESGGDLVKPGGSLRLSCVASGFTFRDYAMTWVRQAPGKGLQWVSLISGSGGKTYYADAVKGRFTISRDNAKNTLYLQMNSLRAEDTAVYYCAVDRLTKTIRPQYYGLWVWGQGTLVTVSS VL: DIVMTQTPLSLSVSPGETASISCRSSQSLLYSIGYNYLDWYLQKPGQSPQGLIYLGSKRASGVPDRFSGSGSGTDFTLRISRVEAEDTGVYYCMQGLRSPLSFGQGTKLEIK    0.000126
FJ2246MP07H09 (Fab, V domains shown) VH: EVQLVESGGDLVKPGGSLRLSCVASGFTFRDYAMTWVRQAPGKGLQWVSLINGSGGKTYYADAVKGRFTISRDNAKNTLYLQMNSLRAEDTAVYYCAVDRLTKTIRPQYYGLWSWGQGTLVTVSS VL: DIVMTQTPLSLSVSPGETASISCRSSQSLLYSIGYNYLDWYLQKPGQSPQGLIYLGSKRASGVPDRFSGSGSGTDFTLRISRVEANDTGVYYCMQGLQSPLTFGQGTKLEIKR    5.23e-05
